system: wheat (Triticum aestivum); test: Test B pre-/postemergence plant response; assay type: in vivo; settings: Postemergence, 31 g ai/ha; 0 to 100 scale (0 no effect, 100 complete control)
OUTCOME MEASURE: Plant response rating, Wheat
Answers are plain numbers.

O=C1CCCC(O)=C1C(=O)c1cnc(-c2cc(F)cc(F)c2)n(C2CCCCC2)c1=O [Compound 181]: 40
CCc1ccccc1-n1c(-c2ccccc2)ncc(C(=O)C2=C(O)CCCC2=O)c1=O [Compound 255]: 35
COCCCn1c(-c2cccc(F)c2)ncc(C(=O)C2=C(O)C3CCC(C3)C2=O)c1=O (centres unmarked) [Compound 238]: 40
COCCn1c(-c2cccc(F)c2)ncc(C(=O)C2=C(O)CCCC2=O)c1=O [Compound 123]: 10
O=C1CCCC(O)=C1C(=O)c1cnc(-c2ccc(F)cc2)n(C2CCCCC2)c1=O [Compound 197]: 0
COCCn1c(-c2cccc(Cl)c2)ncc(C(=O)C2=C(O)CCCC2=O)c1=O [Compound 147]: 0
CCCCn1c(-c2cccc(Cl)c2)ncc(C(=O)C2=C(O)CCCC2=O)c1=O [Compound 146]: 0
CCCn1c(-c2cc(C)cc(C)c2)ncc(C(=O)C2=C(O)CCCC2=O)c1=O [Compound 156]: 15
COCCn1c(-c2cccc(F)c2)ncc(C(=O)C2=C(O)C3CCC(C3)C2=O)c1=O (centres unmarked) [Compound 235]: 45
CCCCn1c(-c2cccc(F)c2)ncc(C(=O)C2=C(O)C3CCC(C3)C2=O)c1=O (centres unmarked) [Compound 237]: 50

// moving on: another record for Plant response rating, Wheat
Recorded Plant response rating, Wheat (compound COCCCn1c(-c2cccc(Br)c2)ncc(C(=O)C2=C(O)CCCC2=O)c1=O [Compound 140] ): 5

* * *

test system: pigweed (Amaranthus retroflexus); test: Test B pre-/postemergence plant response; assay type: in vivo; settings: Postemergence, 62 g ai/ha; scale 0 (no effect) to 100 (complete control); 13 to 15 days
OUTCOME MEASURE: Plant response rating, Pigweed
Give bare numbers.

These recorded examples may help you get a feel for the data.
Cc1c(Cl)cccc1-n1c(-c2ccccc2)ncc(C(=O)C2=C(O)CCCC2=O)c1=O: 98
O=C1CCCC(O)=C1C(=O)c1cnc(-c2ccsc2)n(-c2ccccc2)c1=O: 98
Cc1cc(C)cc(-n2c(-c3ccccc3)ncc(C(=O)C3=C(O)CCCC3=O)c2=O)c1: 95
O=C1CCCC(O)=C1C(=O)c1cnc(-c2ccccc2)n(CC2CCCO2)c1=O (centres unmarked): 100

Now, please, on to the next molecule.
Short answer for Cc1ccccc1-n1c(-c2cccc(Cl)c2)ncc(C(=O)C2=C(O)CCCC2=O)c1=O : Plant response rating, Pigweed was 85

* * *

test system: chickweed (common chickweed, Stellaria media); assay: Test D pre-/postemergence plant response; type: in vivo; details: Postemergence, 31 g ai/ha; scale 0 to 100
Assign Plant response rating, Chickweed to each entry below.
Give bare numbers.

O=C1CCCC(O)=C1C(=O)c1cnc(-c2ccccc2)n(CC2CCCO2)c1=O (centres unmarked) [Compound 59]: 70
COCCCn1c(-c2cccc(F)c2)ncc(C(=O)C2=C(O)C3CCC(C3)C2=O)c1=O (centres unmarked) [Compound 238]: 30
COCCn1c(-c2cccc(C)c2)ncc(C(=O)C2=C(O)C3CCC(C3)C2=O)c1=O (centres unmarked) [Compound 233]: 50
COCCn1c(-c2cc(F)cc(F)c2)ncc(C(=O)C2=C(O)C3CCC(C3)C2=O)c1=O (centres unmarked) [Compound 243]: 35

Data point: COCCn1c(-c2cccc(F)c2)ncc(C(=O)C2=C(O)C3CCC(C3)C2=O)c1=O (centres unmarked) [Compound 235] ; Plant response rating, Chickweed = 5

* * *

Tested on: velvetleaf (Abutilon theophrasti)
Experiment: Test B pre-/postemergence plant response
Format: in vivo
Conditions: Postemergence, 250 g ai/ha; scale 0 to 100 (0 no effect, 100 complete control)
From the text: […] Treated plants and controls were maintained in a greenhouse for 13 to 15 days, after which time all treated plants were visually evaluated and compared to controls. […]
OUTCOME MEASURE: Plant response rating, Velvetleaf
Give bare numbers.

Look over these answered cases.
CCCCCn1c(-c2ccccc2)ncc(C(=O)C2=C(O)CCCC2=O)c1=O [Compound 89]: 100
CC(C)n1c(-c2ccccc2)ncc(C(=O)C2=C(O)CCCC2=O)c1=O [Compound 95]: 100
CCCn1c(-c2ccc(F)cc2)ncc(C(=O)C2=C(O)CCCC2=O)c1=O [Compound 102]: 100
CC(C)CC(=O)OC1=C(C(=O)c2cnc(-c3ccccc3)n(-c3ccccc3)c2=O)C(=O)CCC1 [Compound 83]: 100
CCCCn1c(-c2cc(F)cc(F)c2)ncc(C(=O)C2=C(O)CCCC2=O)c1=O [Compound 121]: 100
CCCCc1ncc(C(=O)C2=C(O)CCCC2=O)c(=O)n1-c1cccc(C)c1 [Compound 63]: 98
O=C1CCCC(O)=C1C(=O)c1cnc(-c2ccsc2)n(-c2ccccc2)c1=O [Compound 56]: 98
CCCCc1ncc(C(=O)C2=C(O)CCCC2=O)c(=O)n1-c1ccc(C)cc1 [Compound 67]: 100
COCC(C)n1c(-c2ccccc2)ncc(C(=O)C2=C(O)CCCC2=O)c1=O (stereo not shown) [Compound 107]: 100

Next molecule, please.
Looking up CCCCn1c(-c2ccccc2)ncc(C(=O)C2=C(O)CCCC2=O)c1=O [Compound 86] , I see its Plant response rating, Velvetleaf listed as 100

* * *

tested on: giant foxtail (Setaria faberii); test: Test B pre-/postemergence plant response; format: in vivo; conditions: Postemergence, 62 g ai/ha; scale 0 to 100 (0 no effect, 100 complete control)
Field: Plant response rating, Foxtail, Giant. Provide a value for each of the compounds that follow.
Answers are plain numbers.

Worked cases, answers included:
Cc1cc(-n2c(-c3cccc(F)c3)ncc(C(=O)C3=C(O)CCCC3=O)c2=O)ccc1F: 100
O=C(C1=C(O)C2CCC(C2)C1=O)c1cnc(-c2ccsc2)n(CC2CCCO2)c1=O (stereo not drawn): 80
COCCn1c(-c2cccc(C)c2)ncc(C(=O)C2=C(O)C3CCC(C3)C2=O)c1=O (stereo not drawn): 95
CCCn1c(-c2ccsc2)ncc(C(=O)C2=C(O)C3CCC(C3)C2=O)c1=O (stereo not drawn): 80
CCc1ccc(-n2c(-c3ccccc3)ncc(C(=O)C3=C(O)CCCC3=O)c2=O)cc1: 70

Kindly review the next compound as well.
COCCn1c(-c2cccc(F)c2)ncc(C(=O)C2=C(O)C3CCC(C3)C2=O)c1=O (stereo not drawn) on giant foxtail (Setaria faberii) gives Plant response rating, Foxtail, Giant = 100

* * *

tested on: winter barley (Hordeum vulgare); assay: Test B postemergence plant response; assay type: in vivo; settings: Postemergence, 125 g ai/ha; visual rating after 13 to 15 days, scale 0 (no effect) to 100 (complete control)
OUTCOME MEASURE: Plant response rating, Barley
Answers are plain numbers.

Please review the following examples before continuing.
O=C1CCCC(O)=C1C(=O)c1cnc(-c2ccsc2)n(-c2ccccc2)c1=O: 30
CCCCCn1c(-c2ccccc2)ncc(C(=O)C2=C(O)CCCC2=O)c1=O: 10

// next entry
Reported Plant response rating, Barley for CCCCc1ncc(C(=O)C2=C(O)CCCC2=O)c(=O)n1-c1ccc(C)cc1 was 20

* * *

system: bermudagrass (Cynodon dactylon); test: Test B pre-/postemergence plant response; assay type: in vivo; settings: Preemergence, 62 g ai/ha; scale 0 to 100 (0 no effect, 100 complete control)
OUTCOME MEASURE: Plant response rating, Bermudagrass
One number for each entry.

Examples with their reported Plant response rating, Bermudagrass follow.
CCCCc1ncc(C(=O)C2=C(O)CCCC2=O)c(=O)n1-c1ccccc1: 100
CCc1ccc(-n2c(-c3ccccc3)ncc(C(=O)C3=C(O)CCCC3=O)c2=O)cc1: 100

Now consider the entry below.
Kindly note the recorded Plant response rating, Bermudagrass for Cc1cc(C)cc(-n2c(-c3ccccc3)ncc(C(=O)C3=C(O)CCCC3=O)c2=O)c1 , which is 100

* * *

system: Italian ryegrass (Lolium multiflorum); test: Test B pre-/postemergence plant response; type: in vivo; conditions: Postemergence, 125 g ai/ha; visual rating after 13 to 15 days, scale 0 (no effect) to 100 (complete control)
Tag: Criterion met if measured Plant response rating, Ryegrass, Italian is not below 5, Criterion not met if it is.

Cc1ccccc1-n1c(-c2cccc(Cl)c2)ncc(C(=O)C2=C(O)CCCC2=O)c1=O: Criterion met

## Input Please check the record Cc1cc(C)cc(-n2c(-c3ccccc3)ncc(C(=O)C3=C(O)CCCC3=O)c2=O)c1 and state if its Plant response rating, Ryegrass, Italian is at or above 5.
## Output Criterion met

* * *

system: morningglory (Ipomoea spp.); assay: Test A pre-/postemergence plant response; type: in vivo; conditions: Preemergence, 125 g ai/ha; 0 to 100 scale, 0 = no effect, 100 = complete control
OUTCOME MEASURE: Plant response rating, Morningglory
Give bare numbers.

CC(C)n1c(-c2ccccc2)ncc(C(=O)C2=C(O)CCCC2=O)c1=O: 70
CCCc1ncc(C(=O)C2=C(O)CCCC2=O)c(=O)n1Cc1cccc(OC(F)(F)F)c1: 0
Cc1ccccc1-n1c(-c2cccc(Cl)c2)ncc(C(=O)C2=C(O)CCCC2=O)c1=O: 0
Cc1ccccc1-c1ncc(C(=O)C2=C(O)CCCC2=O)c(=O)n1-c1ccccc1: 0
CCCCCc1ncc(C(=O)C2=C(O)CCCC2=O)c(=O)n1-c1ccccc1: 0

Would you mind listing Plant response rating, Morningglory for each of the following compounds?
1. Cc1ccc(-n2c(-c3ccccc3)ncc(C(=O)C3=C(O)CCCC3=O)c2=O)cc1
2. CC(C)CC(=O)OC1=C(C(=O)c2cnc(-c3ccccc3)n(-c3ccccc3)c2=O)C(=O)CCC1
3. O=C1CCCC(O)=C1C(=O)c1cnc(-c2cc(F)cc(F)c2)n(-c2ccccc2)c1=O

## Output
1. 0
2. 20
3. 0
